Tested on: CAPAN-1
TEST SUMMARY: Cell viability, CTG, CAPAN-1
Assay type: cell-based
STUDY CONDITIONS: CAPAN-1 (Pancreatic)
Method: To measure cell viability, cell titer glow (CTG, Promega CellTiter-Glo 2.0 Assay) and MTT assays (SigmaAldrich, Cell Proliferation Kit I) were performed. Briefly, cells were serum starved overnight prior to seeding in 96-well plates. […] At assay read-out, CellTiter-Glo reagent was added and luminescence was measured after 10-minutes incubation at room temperature. […] Subsequently, medium was removed and 50 μL DMSO was added to solubilize the crystals, and absorbance was measured at 570 nm. […]
READOUT TYPE: IC50 (µM)
Give bare numbers, in µM.

Would you kindly share the measured IC50 for CC(=O)N(C)c1cccc(-c2ccc3nnc(C)n3n2)c1 ?
82
